# system: Lyn tyrosine kinase (Homo sapiens (Human), UniProt P07948)
# Sequence (P07948 whole entry): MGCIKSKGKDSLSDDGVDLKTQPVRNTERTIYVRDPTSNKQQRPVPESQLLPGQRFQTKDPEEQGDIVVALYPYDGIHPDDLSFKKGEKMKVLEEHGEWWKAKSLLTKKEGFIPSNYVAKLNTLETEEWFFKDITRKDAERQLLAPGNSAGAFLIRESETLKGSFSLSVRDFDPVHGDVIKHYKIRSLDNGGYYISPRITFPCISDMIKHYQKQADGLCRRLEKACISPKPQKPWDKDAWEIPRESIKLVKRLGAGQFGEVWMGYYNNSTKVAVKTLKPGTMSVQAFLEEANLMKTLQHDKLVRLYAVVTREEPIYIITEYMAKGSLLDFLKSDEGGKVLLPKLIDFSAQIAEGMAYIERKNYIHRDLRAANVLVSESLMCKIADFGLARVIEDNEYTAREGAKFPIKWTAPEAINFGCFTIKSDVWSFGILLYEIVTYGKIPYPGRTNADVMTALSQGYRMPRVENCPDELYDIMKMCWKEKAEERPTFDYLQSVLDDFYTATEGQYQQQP
# test: in vitro Lyn tyrosine kinase inhibition
# Assay type: biochemical
# condition_set: 1 uM compound; read-out: % inhibition against Lyn
assay_endpoint: inhibition at 1 µM

Examples from the recorded data:
Provide Lyn tyrosine kinase (Homo sapiens (Human), UniProt P07948) inhibition at 1 µM reading for N#Cc1ccc(-c2cc3ncnc(Nc4cccc(O)c4)c3s2)cc1 [LCB 03-0013] .
> 70%

Provide Lyn tyrosine kinase (Homo sapiens (Human), UniProt P07948) inhibition at 1 µM reading for OCC1CCCN1Cc1ccc(-c2cc3ncnc(Nc4cccc(O)c4)c3s2)cc1 (stereo not shown) [LCB 03-0057] .
> 50%

Provide Lyn tyrosine kinase (Homo sapiens (Human), UniProt P07948) inhibition at 1 µM reading for Oc1cccc(Nc2ncnc3cc(-c4ccc(Cl)cc4)sc23)c1 [LCB 03-0019] .
> 60%

More entries:
Provide Lyn tyrosine kinase (Homo sapiens (Human), UniProt P07948) inhibition at 1 µM reading for Cl.Oc1cccc(Nc2ncnc3cc(-c4cccc(CN5CCCCC5)c4)sc23)c1 [LCB 03-0060] .
> 80%

Provide Lyn tyrosine kinase (Homo sapiens (Human), UniProt P07948) inhibition at 1 µM reading for COc1cccc(Nc2ncnc3cc(-c4ccc(O)cc4)sc23)c1 [LCB 03-0016] .
> 70%

Provide Lyn tyrosine kinase (Homo sapiens (Human), UniProt P07948) inhibition at 1 µM reading for CN1CCN(Cc2csc(-c3cc4ncnc(Nc5cccc(O)c5)c4s3)c2)CC1 [LCB 03-0102] .
> 60%

Provide Lyn tyrosine kinase (Homo sapiens (Human), UniProt P07948) inhibition at 1 µM reading for CN1CCN(CCc2ccc(-c3cc4ncnc(Nc5cccc(O)c5)c4s3)cc2)CC1 [LCB 03-0045] .
> 30%

Provide Lyn tyrosine kinase (Homo sapiens (Human), UniProt P07948) inhibition at 1 µM reading for Oc1cccc(Nc2ncnc3cc(-c4ccc(OCCN5CCOCC5)cc4)sc23)c1 [LCB 03-0020] .
> 70%

Provide Lyn tyrosine kinase (Homo sapiens (Human), UniProt P07948) inhibition at 1 µM reading for Oc1cccc(Nc2ncnc3cc(-c4ccc(CCN5CCOCC5)cc4)sc23)c1 [LCB 03-0046] .
> 30%

Provide Lyn tyrosine kinase (Homo sapiens (Human), UniProt P07948) inhibition at 1 µM reading for CN1CCN(Cc2ccc(-c3cc4ncnc(Nc5cccc(O)c5)c4s3)o2)CC1 [LCB 03-0087] .
> 70%

Provide Lyn tyrosine kinase (Homo sapiens (Human), UniProt P07948) inhibition at 1 µM reading for Cl.Oc1cccc(Nc2ncnc3cc(-c4cccc(CCN5CCCC5)c4)sc23)c1 [LCB 03-0076] .
> 80%

Provide Lyn tyrosine kinase (Homo sapiens (Human), UniProt P07948) inhibition at 1 µM reading for CCNCc1ccc(-c2cc3ncnc(Nc4cccc(O)c4)c3s2)cc1 [LCB 03-0042] .
> 80%

Provide Lyn tyrosine kinase (Homo sapiens (Human), UniProt P07948) inhibition at 1 µM reading for CCNCc1ccc(-c2cc3ncnc(Nc4cccc(O)c4)c3s2)o1 [LCB 03-0091] .
> 70%

Provide Lyn tyrosine kinase (Homo sapiens (Human), UniProt P07948) inhibition at 1 µM reading for Oc1cccc(Nc2ncnc3cc(-c4ccc(CN5CCNCC5)s4)sc23)c1 [LCB 03-0094] .
> 60%

Provide Lyn tyrosine kinase (Homo sapiens (Human), UniProt P07948) inhibition at 1 µM reading for Oc1cccc(Nc2ncnc3cc(-c4ccoc4)sc23)c1 [LCB 03-0039] .
> 50%

Provide Lyn tyrosine kinase (Homo sapiens (Human), UniProt P07948) inhibition at 1 µM reading for COc1cccc(Nc2ncnc3cc(-c4ccc(OCCN5CCOCC5)cc4)sc23)c1 [LCB 03-0018] .
> 70%

// data source = patent US9062066B2
